# system: human CA-XII (Homo sapiens, UniProt O43570)
# Construct: purchased Creative BioMart CA12-261H
# Sequence (O43570 25-354): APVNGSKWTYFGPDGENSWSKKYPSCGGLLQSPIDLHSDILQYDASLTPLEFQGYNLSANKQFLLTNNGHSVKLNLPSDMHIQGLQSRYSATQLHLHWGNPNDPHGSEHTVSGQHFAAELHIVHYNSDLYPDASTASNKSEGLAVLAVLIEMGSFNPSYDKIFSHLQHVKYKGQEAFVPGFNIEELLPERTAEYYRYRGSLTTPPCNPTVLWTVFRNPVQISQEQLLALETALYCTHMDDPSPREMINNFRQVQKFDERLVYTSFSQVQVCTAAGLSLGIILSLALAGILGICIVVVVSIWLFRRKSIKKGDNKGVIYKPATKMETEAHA
# assay_details: Surface Plasmon Resonance (SPR) binding kinetics to recombinant human CA-XII (Biacore 8K, single-cycle kinetics, 1:1 binding model)
# test_parameters: Chelated Metal: Lu-175, 25° C., pH 7.4, read-out: CAXII KD
# Method: G1. Surface Plasmon Resonance Assay Conditions for hCA-IX and hCA-XII Surface Plasmon Resonance (SPR) experiments were conducted on a Biacore 8K instrument (Cytiva, Marlborough, MA) to determine the binding kinetics of the compound to recombinant human CA-IX (Acro, CA9-H82E3) and CA-XII (Creative BioMart, CA12-261H) proteins. […]
pKd: −log10 of the molar value.

# smiles_str, system, pKd
records = [
    ("NS(=O)(=O)c1nnc(NC(=O)C23CCC(c4cn(CCNC(=O)[C@@H]5CN(C(=O)CN6CCN(CC(=O)O)CCN(CC(=O)O)CCN(CC(=O)O)CC6)CCN5C(=O)CC[C@H](NC(=O)C[C@H](NC(=O)c5ccc(C6CC6)nc5)C(=O)O)C(=O)O)nn4)(CC2)CC3)s1.[Lu+3]", "human CA-XII (Homo sapiens, UniProt O43570)", "8.60 to 9.00"),
    ("NS(=O)(=O)c1nnc(NC(=O)C23CC(c4cn(CCNC(=O)[C@@H]5CN(C(=O)CN6CCN(CC(=O)O)CCN(CC(=O)O)CCN(CC(=O)O)CC6)CCN5C(=O)C[C@H](Nc5ncc(C(=O)NCc6coc(C(F)(F)F)n6)cn5)C(=O)O)nn4)(C2)C3)s1.[Lu+3]", "human CA-XII (Homo sapiens, UniProt O43570)", "< 8.00"),
    ("CC(CCNC(=O)c1cnc(N[C@@H](CC(=O)N2CCN(C(=O)CN3CCN(CC(=O)O)CCN(CC(=O)O)CCN(CC(=O)O)CC3)C[C@@H]2C(=O)NCCn2cc(C34CC(C(=O)Nc5nnc(S(N)(=O)=O)s5)(C3)C4)nn2)C(=O)O)nc1)(c1ccc(O)cc1)c1ccc(O)cc1.[Lu+3]", "human CA-XII (Homo sapiens, UniProt O43570)", "< 8.00"),
    ("NS(=O)(=O)c1nnc(NC(=O)C23CCC(c4cn(CCNC(=O)[C@@H]5CN(C(=O)CN6CCN(CC(=O)O)CCN(CC(=O)O)CCN(CC(=O)O)CC6)CCN5C(=O)CC[C@H](NC(=O)C[C@H](NC(=O)CCC5CC5)C(=O)O)C(=O)O)nn4)(CC2)CC3)s1.[Lu+3]", "human CA-XII (Homo sapiens, UniProt O43570)", "> 9.00"),
]

---

# system: human CA-IX (Homo sapiens, UniProt Q16790)
# Construct: purchased Acro CA9-H82E3
# assay_details: Surface Plasmon Resonance (SPR) binding kinetics to recombinant human CA-IX (Biacore 8K, single-cycle kinetics, 1:1 binding model)
# test_parameters: Chelated Metal: Lu-175; SPR, 25° C., pH 7.4; read-out: CAIX KD

# smiles_str, Kd
records = [
    ("NS(=O)(=O)c1nnc(NC(=O)C23CC(c4cn(CCNC(=O)[C@@H]5CN(C(=O)CN6CCN(CC(=O)O)CCN(CC(=O)O)CCN(CC(=O)O)CC6)CCN5C(=O)C[C@H](NC(=O)C[C@H](NC(=O)CCC56CCC(CC5)C6)C(=O)O)C(=O)O)nn4)(C2)C3)s1.[Lu+3]", "< 1 nM"),
    ("CC(CCNC(=O)c1cnc(N[C@@H](CC(=O)N2CCN(C(=O)CN3CCN(CC(=O)O)CCN(CC(=O)O)CCN(CC(=O)O)CC3)C[C@@H]2C(=O)NCCn2cc(C34CC(C(=O)Nc5nnc(S(N)(=O)=O)s5)(C3)C4)nn2)C(=O)O)nc1)(c1ccc(O)cc1)c1ccc(O)cc1.[Lu+3]", "1 to 2.5 nM"),
    ("NS(=O)(=O)c1nnc(NC(=O)C23CC(c4cn(CCNC(=O)[C@@H]5CN(C(=O)CN6CCN(CC(=O)O)CCN(CC(=O)O)CCN(CC(=O)O)CC6)CCN5C(=O)C[C@H](Nc5ncc(C(=O)NCc6ccc(C7CC7)cn6)cn5)C(=O)O)nn4)(C2)C3)s1.[Lu+3]", "2.5 to 10 nM"),
    ("NS(=O)(=O)c1nnc(NC(=O)C23CC(c4cn(CCNC(=O)[C@@H]5CN(C(=O)CN6CCN(CC(=O)O)CCN(CC(=O)O)CCN(CC(=O)O)CC6)CCN5C(=O)C[C@H](NC(=O)C[C@H](NCC5CC5)C(=O)O)C(=O)O)nn4)(C2)C3)s1.[Lu+3]", "2.5 to 10 nM"),
    ("CC(CCC(=O)N[C@@H](CC(=O)N[C@@H](CC(=O)N[C@@H](CCCCn1cc(C23CCC(C(=O)Nc4nnc(S(N)(=O)=O)s4)(CC2)C3)nn1)C(=O)N1CC(NC(=O)CN2CCN(CC(=O)O)CCN(CC(=O)O)CCN(CC(=O)O)CC2)C1)C(=O)O)C(=O)O)(c1ccc(O)cc1)c1ccc(O)cc1.[Lu+3]", "< 1 nM"),
    ("CC(CCCC(=O)N1CCOC[C@H]1C(=O)N[C@@H](CC(=O)N1CCN(C(=O)CN2CCN(CC(=O)O)CCN(CC(=O)O)CCN(CC(=O)O)CC2)C[C@H]1C(=O)NCCn1cc(C23CC(C(=O)Nc4nnc(S(N)(=O)=O)s4)(C2)C3)nn1)C(=O)O)(c1ccc(O)cc1)c1ccc(O)cc1.[Lu+3]", "< 1 nM"),
    ("Cc1cc(C(=O)Nc2nnc(S(N)(=O)=O)s2)ccc1-c1cn(CCNC(=O)[C@@H]2CN(C(=O)CN3CCN(CC(=O)O)CCN(CC(=O)O)CCN(CC(=O)O)CC3)CCN2C(=O)C[C@H](NC(=O)C[C@H](NC(=O)CCC(C)(c2ccc(O)cc2)c2ccc(O)cc2)C(=O)O)C(=O)O)nn1.[Lu+3]", "< 1 nM"),
    ("NS(=O)(=O)c1nnc(NC(=O)C23CC(c4cn(CCNC(=O)[C@@H]5CN(C(=O)CN6CCN(CC(=O)O)CCN(CC(=O)O)CCN(CC(=O)O)CC6)CCN5C(=O)C[C@H](NC(=O)C[C@H](NC(=O)c5n[nH]c6ccccc56)C(=O)O)C(=O)O)nn4)(C2)C3)s1.[Lu+3]", "< 1 nM"),
    ("NS(=O)(=O)c1nnc(NC(=O)C23CC(c4cn(C[C@H]5CN(C(=O)CN6CCN(CC(=O)O)CCN(CC(=O)O)CCN(CC(=O)O)CC6)CCN5C(=O)C[C@H](NC(=O)[C@@H]5COCCN5C(=O)Cc5n[nH]c6ccccc56)C(=O)O)nn4)(C2)C3)s1.[Lu+3]", "1 to 2.5 nM"),
    ("NS(=O)(=O)c1nnc(NC(=O)C23CC(c4cn(CCNC(=O)[C@@H]5CN(C(=O)CN6CCN(CC(=O)O)CCN(CC(=O)O)CCN(CC(=O)O)CC6)CCN5C(=O)C[C@H](NC(=O)C[C@H](NC(=O)CCCc5ccc6c(c5)CCCC6)C(=O)O)C(=O)O)nn4)(C2)C3)s1.[Lu+3]", "1 to 2.5 nM"),
    ("NS(=O)(=O)c1nnc(NC(=O)C23CC(c4cn(CCNC(=O)[C@@H]5CN(C(=O)CN6CCN(CC(=O)O)CCN(CC(=O)O)CCN(CC(=O)O)CC6)CCN5C(=O)CNC(=O)C5(C(=O)O)CCN(C(=O)Cc6c[nH]nc6C(F)(F)F)CC5)nn4)(C2)C3)s1.[Lu+3]", "2.5 to 10 nM"),
    ("NS(=O)(=O)c1nnc(NC(=O)C23CCC(c4cn(CCNC(=O)[C@@H]5CN(C(=O)CN6CCN(CC(=O)O)CCN(CC(=O)O)CCN(CC(=O)O)CC6)CCN5C(=O)CC[C@H](NC(=O)C[C@H](NC(=O)CCCc5ccc(O)cc5)C(=O)O)C(=O)O)nn4)(CC2)CC3)s1.[Lu+3]", "< 1 nM"),
    ("NS(=O)(=O)c1nnc(NC(=O)C23CC(c4cn(CCNC(=O)[C@@H]5CN(C(=O)CN6CCN(CC(=O)O)CCN(CC(=O)O)CCN(CC(=O)O)CC6)CCN5C(=O)C[C@H](NC(=O)C[C@H](NC(=O)CCc5ccc(O)cc5)C(=O)O)C(=O)O)nn4)(C2)C3)s1.[Lu+3]", "1 to 2.5 nM"),
    ("CC(CCCC(=O)N1CCC(C(N)=O)(C(=O)NCC(=O)N2CCN(C(=O)CN3CCN(CC(=O)O)CCN(CC(=O)O)CCN(CC(=O)O)CC3)C[C@H]2C(=O)NCCn2cc(C34CC(C(=O)Nc5nnc(S(N)(=O)=O)s5)(C3)C4)nn2)CC1)(c1ccc(O)cc1)c1ccc(O)cc1.[Lu+3]", "< 1 nM"),
]
